Attribution: paper PMC10357533

Each entry below carries its reported pIC50.
# target-or-test-system: electric eel (Electrophorus electricus) AChE (Electrophorus electricus)
Lab note — pIC50 values are minus log10 of concentrations in M.

Solved cases below.
Cc1nc2ccccc2c(=O)n1CC(=O)Nc1ccccc1Cl
3.34
Cc1ccccc1NC(=O)Cn1c(C)nc2ccccc2c1=O
3.31

Request: Fill in: pIC50 of "Cc1nc2ccccc2c(=O)n1CC(=O)Nc1ccc(Cl)cc1" is ___
Response: 3.30

* * *

# target-or-test-system: electric eel (Electrophorus electricus) AChE (Electrophorus electricus, UniProt O42275)
# Sequence (O42275 24-633): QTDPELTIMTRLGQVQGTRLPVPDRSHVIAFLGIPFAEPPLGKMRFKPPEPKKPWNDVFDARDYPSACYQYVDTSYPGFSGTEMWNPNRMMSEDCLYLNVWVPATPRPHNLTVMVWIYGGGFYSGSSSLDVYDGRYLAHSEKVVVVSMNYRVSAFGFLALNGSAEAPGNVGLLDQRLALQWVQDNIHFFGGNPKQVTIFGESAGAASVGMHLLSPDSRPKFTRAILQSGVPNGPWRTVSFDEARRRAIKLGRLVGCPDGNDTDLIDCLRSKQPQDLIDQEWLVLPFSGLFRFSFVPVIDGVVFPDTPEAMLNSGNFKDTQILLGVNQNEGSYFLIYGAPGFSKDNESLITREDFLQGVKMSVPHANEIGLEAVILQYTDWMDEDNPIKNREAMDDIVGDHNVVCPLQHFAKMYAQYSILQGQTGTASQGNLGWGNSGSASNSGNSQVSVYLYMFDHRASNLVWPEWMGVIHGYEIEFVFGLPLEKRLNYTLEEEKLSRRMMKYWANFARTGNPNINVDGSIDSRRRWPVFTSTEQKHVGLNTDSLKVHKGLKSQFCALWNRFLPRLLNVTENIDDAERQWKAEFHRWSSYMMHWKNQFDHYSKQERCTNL
# assay-protocol: Acetylcholinesterase
# Type: biochemical
# condition-parameters: read-out: AChE inhibitory activity
The following molecules are shown together with reported inhibition at 20 µg/mL values.
Give your result in % as a bare value.

Here are 6 molecules together with their reported answers.
Cc1nc2ccccc2c(=O)n1CC(=O)Nc1ccc([N+](=O)[O-])cc1
6.08
Cc1nc2ccccc2c(=O)n1CC(=O)Nc1cccc(Cl)c1
29.3
Cc1nc2ccccc2c(=O)n1CC(=O)Nc1ccc(Br)cc1
14
Cc1ccccc1NC(=O)Cn1c(C)nc2ccccc2c1=O
13.4
Cc1nc2ccccc2c(=O)n1CC(=O)Nc1ccccc1Cl
19.2
Cc1ccc(NC(=O)Cn2c(C)nc3ccccc3c2=O)cc1
34.2

Next molecule, inhibition at 20 µg/mL to be filled in.
Request: Give its inhibition at 20 µg/mL value. Item: "Cc1nc2ccccc2c(=O)n1CC(=O)Nc1ccc(Cl)cc1"
Response: 26.6
